Cited source for all entries: the supplement of paper PMC10126150

- System: ATP;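 further: ATP exposure 15 min at 22 °C before imaging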
- EXPERIMENT NOTES: switch fluorescence ratio, 500 uM ATP over buffer (Cy3 cluster intensity, sum of 5 cycles each) (fold (ratio)); higher = stronger signal-on switching upon ATP binding; sequences stand for … in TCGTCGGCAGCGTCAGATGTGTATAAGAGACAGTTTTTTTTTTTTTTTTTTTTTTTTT…TC
- RUN CONDITIONS: aptamer strand: ATP DNA aptamer (quencher-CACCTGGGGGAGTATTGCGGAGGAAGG + anchor), 100 nM annealed; ATP concentration: 500 uM
Let's look at some sequences and their measured switch fluorescence ratio.
Answer with the value's number alone.

Below are worked cases with known answers.
BIOSEQUENCE: CGAATGGGTT
switch fluorescence ratio: 0.965
//
BIOSEQUENCE: TGTGACTCGG
switch fluorescence ratio: 0.978
//
BIOSEQUENCE: ATACAGGTCT
switch fluorescence ratio: 1.03
//
BIOSEQUENCE: TTGCTTCGGC
switch fluorescence ratio: 0.976
//
BIOSEQUENCE: CGACTAGGGG
switch fluorescence ratio: 1.01

Exercise: Fill blank: measured switch fluorescence ratio of the sequence ATGGATATGG is ____.
Solution: 1

Exercise: Fill blank: measured switch fluorescence ratio of the sequence TGTTGAGCAT is ____.
Solution: 1.09

====

- Test system: ATP;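 further: ATP exposure 15 min at 22 °C before imaging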
- EXPERIMENT NOTES: switch fluorescence ratio, 500 uM ATP over buffer (Cy3 cluster intensity, sum of 5 cycles each) (fold (ratio)); higher = stronger signal-on switching upon ATP binding; sequences stand for … in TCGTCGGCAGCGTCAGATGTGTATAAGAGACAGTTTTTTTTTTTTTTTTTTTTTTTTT…TC
- RUN CONDITIONS: aptamer strand: ATP DNA aptamer (quencher-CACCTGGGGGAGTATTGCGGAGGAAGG + anchor), 100 nM annealed; ATP concentration: 500 uM
Let's look at some sequences and their measured switch fluorescence ratio.
Answer with the value's number alone.

Below are worked cases with known answers.
BIOSEQUENCE: CCGGGGAGGG
EXPERIMENTAL TARGET: ATP;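 further: ATP exposure 15 min at 22 °C before imaging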
switch fluorescence ratio: 1.08
--
BIOSEQUENCE: GGATAGGTTT
EXPERIMENTAL TARGET: ATP;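 further: ATP exposure 15 min at 22 °C before imaging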
switch fluorescence ratio: 1.01
--
BIOSEQUENCE: GCGTTTGGTA
EXPERIMENTAL TARGET: ATP;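 further: ATP exposure 15 min at 22 °C before imaging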
switch fluorescence ratio: 0.988
--
BIOSEQUENCE: TGAATAGAAC
EXPERIMENTAL TARGET: ATP;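 further: ATP exposure 15 min at 22 °C before imaging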
switch fluorescence ratio: 1.01
--
BIOSEQUENCE: TAAAGAAATG
EXPERIMENTAL TARGET: ATP;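 further: ATP exposure 15 min at 22 °C before imaging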
switch fluorescence ratio: 0.99
--
BIOSEQUENCE: GAAAAAAAAA
EXPERIMENTAL TARGET: ATP;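 further: ATP exposure 15 min at 22 °C before imaging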
switch fluorescence ratio: 0.992

Exercise: Fill blank: measured switch fluorescence ratio of the sequence GGGCAGCCTT is ____.
Solution: 0.993

Exercise: Fill blank: measured switch fluorescence ratio of the sequence TCCATGTGCC is ____.
Solution: 1.14

Exercise: Fill blank: measured switch fluorescence ratio of the sequence GTTTGTTAGG is ____.
Solution: 1.01

====

Let's look at some sequences and their measured switch fluorescence ratio.
- Test system: ATP;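 further: ATP exposure 15 min at 22 °C before imaging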
- EXPERIMENT NOTES: switch fluorescence ratio, 500 uM ATP over buffer (Cy3 cluster intensity, sum of 5 cycles each) (fold (ratio)); higher = stronger signal-on switching upon ATP binding; sequences stand for … in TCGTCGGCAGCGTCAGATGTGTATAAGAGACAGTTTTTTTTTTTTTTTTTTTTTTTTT…TC
- RUN CONDITIONS: aptamer strand: ATP DNA aptamer (quencher-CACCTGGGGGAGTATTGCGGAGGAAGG + anchor), 100 nM annealed; ATP concentration: 500 uM

BIOSEQUENCE: GGGGGTATGT
OBSERVED RESULT: 0.997

Exercise: Fill blank: measured switch fluorescence ratio of the sequence TTCCAAAAGG is ____.
Solution: 1.02

Exercise: Fill blank: measured switch fluorescence ratio of the sequence GGGGGGCAGC is ____.
Solution: 1

Exercise: Fill blank: measured switch fluorescence ratio of the sequence GCGGACAGTT is ____.
Solution: 0.967

Exercise: Fill blank: measured switch fluorescence ratio of the sequence GTCGGGGTAC is ____.
Solution: 0.997

Exercise: Fill blank: measured switch fluorescence ratio of the sequence TGCCATGACG is ____.
Solution: 0.936
